Listed below: IC50 values for each entry.
System: SW480 (G12V)
Experiment: In vitro cell proliferation inhibition test (CellTiter-Glo), SW480
Format: cell-based
Details: Homo sapiens, SW480 colon cell line, KRAS (p.G12V), 72 h co-incubation
Provide the reading as a plain figure in nM.

Examples with their reported IC50 follow.
Considering CCn1c(-c2cc(-c3ccc(CN4CCC(F)(F)CC4)cc3)cnc2[C@H](C)OC)c2c3cc(ccc31)-c1csc(n1)C[C@H](NC(=O)[C@H]1C[C@@H]1C)C(=O)N1CCC[C@H](N1)C(=O)OCC(C)(C)C2 (atropisomer, axis not shown) [Compound 7] , its IC50 with SW480 (G12V) was recorded as 159

Considering CCn1c(-c2cc(-c3ccc(CN4CCOCC4)cn3)cnc2[C@H](C)OC)c2c3cc(ccc31)-c1csc(n1)C[C@H](NC(=O)[C@H]1C[C@@H]1C)C(=O)N1CCC[C@H](N1)C(=O)OCC(C)(C)C2 (atropisomer, axis not shown) [Compound 12] , its IC50 with SW480 (G12V) was recorded as 6.6

Continuing:
Considering CCn1c(-c2cc(-c3ccn(CCN4CCOCC4)c(=O)c3)cnc2[C@H](C)OC)c2c3cc(ccc31)-c1csc(n1)C[C@H](NC(=O)[C@H]1[C@H](C)[C@@H]1C)C(=O)N1CCC[C@H](N1)C(=O)OCC(C)(C)C2 (atropisomer, axis not shown) [Compound 36] , its IC50 with SW480 (G12V) was recorded as 1

Considering CCn1c(-c2cc(-c3cnn(C4CCN(C)CC4)c3)cnc2[C@H](C)OC)c2c3cc(ccc31)-c1csc(n1)C[C@H](NC(=O)[C@H]1[C@H](C)[C@@H]1C)C(=O)N1CCC[C@H](N1)C(=O)OCC(C)(C)C2 (atropisomer, axis not shown) [Compound 18] , its IC50 with SW480 (G12V) was recorded as 1.4

Considering CCn1c(-c2cc(-c3cc([C@@H]4CCCN4C)on3)cnc2[C@H](C)OC)c2c3cc(ccc31)-c1csc(n1)C[C@H](NC(=O)[C@H]1C[C@@H]1C)C(=O)N1CCC[C@H](N1)C(=O)OCC(C)(C)C2 (atropisomer, axis not shown) [Compound 25] , its IC50 with SW480 (G12V) was recorded as 22
